molecular target: panel of 442 kinases (Homo sapiens, UniProt Q99759); construct: purchased Ambit Biosciences (scanMAXX KINOMEscan); assay: biochemical; assay type: binding; conditions: kinase MAP3K3; 1 µM; read-out: % of control at 1 µM
Sequence (Q99759 whole entry): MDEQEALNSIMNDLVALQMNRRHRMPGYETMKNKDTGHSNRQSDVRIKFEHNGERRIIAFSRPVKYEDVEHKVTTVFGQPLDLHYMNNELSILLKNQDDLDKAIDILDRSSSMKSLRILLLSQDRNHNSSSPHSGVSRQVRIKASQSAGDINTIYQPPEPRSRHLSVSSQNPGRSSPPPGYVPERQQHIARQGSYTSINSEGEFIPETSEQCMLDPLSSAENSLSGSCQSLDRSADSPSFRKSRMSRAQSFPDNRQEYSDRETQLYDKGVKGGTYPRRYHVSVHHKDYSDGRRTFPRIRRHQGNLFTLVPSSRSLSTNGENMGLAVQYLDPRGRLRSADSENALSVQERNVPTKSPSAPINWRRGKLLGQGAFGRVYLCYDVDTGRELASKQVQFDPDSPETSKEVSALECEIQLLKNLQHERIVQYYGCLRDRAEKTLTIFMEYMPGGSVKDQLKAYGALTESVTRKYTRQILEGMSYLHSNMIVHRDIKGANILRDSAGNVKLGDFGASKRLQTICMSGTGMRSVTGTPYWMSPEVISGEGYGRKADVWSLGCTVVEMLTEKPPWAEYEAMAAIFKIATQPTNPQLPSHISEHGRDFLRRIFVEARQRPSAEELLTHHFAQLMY
Below is a list of entries, each paired with its recorded remaining activity at 1 µM value.
Value Kind: remaining activity at 1 µM (%)

{"columns": ["Compound Structure", "Unit Name", "Assay Value"],
 "data": [
  ["COc1ncc(-c2ccc3nccc(-c4ccnnc4)c3c2)cc1NS(=O)(=O)c1ccc(F)cc1F", "%", 100],
  ["FC(F)c1nc2ccccc2n1-c1nc(N2CCOCC2)nc(N2CCOCC2)n1", "%", 74],
  ["Cn1c(=O)n(-c2ccc(C(C)(C)C#N)cc2)c2c3cc(-c4cnc5ccccc5c4)ccc3ncc21", "%", 81],
  ["Nc1cc(C(F)(F)F)c(-c2cc(N3CCOCC3)nc(N3CCOCC3)n2)cn1", "%", 98]
]}

* * *

biological target: panel of 442 kinases (Homo sapiens); construct: purchased Ambit Biosciences (scanMAXX KINOMEscan); test: biochemical; assay type: binding; conditions: kinase NDR2; 1 µM; read-out: % of control at 1 µM
Below is a list of entries, each paired with its recorded remaining activity at 1 µM value.
Value Kind: remaining activity at 1 µM (%)

{"columns": ["Compound", "Assay Value"],
 "data": [
  ["COc1ncc(-c2ccc3nccc(-c4ccnnc4)c3c2)cc1NS(=O)(=O)c1ccc(F)cc1F [Omipalisib]", 100],
  ["Cn1c(=O)n(-c2ccc(C(C)(C)C#N)cc2)c2c3cc(-c4cnc5ccccc5c4)ccc3ncc21 [Dactolisib]", 100],
  ["FC(F)c1nc2ccccc2n1-c1nc(N2CCOCC2)nc(N2CCOCC2)n1 [ZSTK474]", 100],
  ["Nc1cc(C(F)(F)F)c(-c2cc(N3CCOCC3)nc(N3CCOCC3)n2)cn1 [Buparlisib]", 90]
]}

* * *

Below is a list of entries, each paired with its recorded remaining activity at 1 µM value.
target: panel of 442 kinases (Homo sapiens, UniProt O00444); construct: purchased Ambit Biosciences (scanMAXX KINOMEscan); assay: biochemical; format: binding; details: kinase PLK4; 1 µM; read-out: PLK4 (% of control at 1 µM)
Sequence (O00444 whole entry): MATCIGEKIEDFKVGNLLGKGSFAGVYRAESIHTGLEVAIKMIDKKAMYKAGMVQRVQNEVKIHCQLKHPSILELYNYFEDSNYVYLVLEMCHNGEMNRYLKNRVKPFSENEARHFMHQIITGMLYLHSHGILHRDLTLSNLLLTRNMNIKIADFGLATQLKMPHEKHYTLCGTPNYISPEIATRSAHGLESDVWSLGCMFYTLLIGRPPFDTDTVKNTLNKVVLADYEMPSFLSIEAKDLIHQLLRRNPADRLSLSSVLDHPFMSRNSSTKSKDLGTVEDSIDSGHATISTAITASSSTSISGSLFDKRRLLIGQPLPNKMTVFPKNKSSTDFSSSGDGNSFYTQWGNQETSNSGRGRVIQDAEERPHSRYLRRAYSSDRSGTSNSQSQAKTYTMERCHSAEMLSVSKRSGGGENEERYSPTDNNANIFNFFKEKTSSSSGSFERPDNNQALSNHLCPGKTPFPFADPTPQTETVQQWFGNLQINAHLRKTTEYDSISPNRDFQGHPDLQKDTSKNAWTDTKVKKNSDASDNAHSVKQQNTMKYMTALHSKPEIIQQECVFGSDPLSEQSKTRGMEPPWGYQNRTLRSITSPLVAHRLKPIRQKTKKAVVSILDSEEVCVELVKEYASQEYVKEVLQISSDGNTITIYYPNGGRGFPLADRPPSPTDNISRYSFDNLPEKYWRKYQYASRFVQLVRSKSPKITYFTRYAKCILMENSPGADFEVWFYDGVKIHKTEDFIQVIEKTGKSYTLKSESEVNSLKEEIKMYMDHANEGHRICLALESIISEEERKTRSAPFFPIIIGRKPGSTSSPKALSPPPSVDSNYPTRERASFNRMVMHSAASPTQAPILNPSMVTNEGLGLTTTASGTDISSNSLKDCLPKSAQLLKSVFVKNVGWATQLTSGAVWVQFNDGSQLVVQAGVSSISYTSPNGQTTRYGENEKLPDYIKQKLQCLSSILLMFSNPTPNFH
Value Kind: remaining activity at 1 µM (%)

{"columns": ["Compound Structure", "Target Of Assay", "Value Kind", "Assay Value"],
 "data": [
  ["FC(F)c1nc2ccccc2n1-c1nc(N2CCOCC2)nc(N2CCOCC2)n1", "panel of 442 kinases (Homo sapiens, UniProt O00444)", "remaining activity at 1 µM", 84],
  ["Cn1c(=O)n(-c2ccc(C(C)(C)C#N)cc2)c2c3cc(-c4cnc5ccccc5c4)ccc3ncc21", "panel of 442 kinases (Homo sapiens, UniProt O00444)", "remaining activity at 1 µM", 94],
  ["COc1ncc(-c2ccc3nccc(-c4ccnnc4)c3c2)cc1NS(=O)(=O)c1ccc(F)cc1F", "panel of 442 kinases (Homo sapiens, UniProt O00444)", "remaining activity at 1 µM", 61],
  ["Nc1cc(C(F)(F)F)c(-c2cc(N3CCOCC3)nc(N3CCOCC3)n2)cn1", "panel of 442 kinases (Homo sapiens, UniProt O00444)", "remaining activity at 1 µM", 93]
]}

* * *

target: panel of 442 kinases (Homo sapiens, UniProt Q04759); construct: purchased Ambit Biosciences (scanMAXX KINOMEscan); assay: biochemical; type: binding; settings: kinase PRKCQ; 1 µM; read-out: PRKCQ (% of control at 1 µM)
Sequence (Q04759 whole entry): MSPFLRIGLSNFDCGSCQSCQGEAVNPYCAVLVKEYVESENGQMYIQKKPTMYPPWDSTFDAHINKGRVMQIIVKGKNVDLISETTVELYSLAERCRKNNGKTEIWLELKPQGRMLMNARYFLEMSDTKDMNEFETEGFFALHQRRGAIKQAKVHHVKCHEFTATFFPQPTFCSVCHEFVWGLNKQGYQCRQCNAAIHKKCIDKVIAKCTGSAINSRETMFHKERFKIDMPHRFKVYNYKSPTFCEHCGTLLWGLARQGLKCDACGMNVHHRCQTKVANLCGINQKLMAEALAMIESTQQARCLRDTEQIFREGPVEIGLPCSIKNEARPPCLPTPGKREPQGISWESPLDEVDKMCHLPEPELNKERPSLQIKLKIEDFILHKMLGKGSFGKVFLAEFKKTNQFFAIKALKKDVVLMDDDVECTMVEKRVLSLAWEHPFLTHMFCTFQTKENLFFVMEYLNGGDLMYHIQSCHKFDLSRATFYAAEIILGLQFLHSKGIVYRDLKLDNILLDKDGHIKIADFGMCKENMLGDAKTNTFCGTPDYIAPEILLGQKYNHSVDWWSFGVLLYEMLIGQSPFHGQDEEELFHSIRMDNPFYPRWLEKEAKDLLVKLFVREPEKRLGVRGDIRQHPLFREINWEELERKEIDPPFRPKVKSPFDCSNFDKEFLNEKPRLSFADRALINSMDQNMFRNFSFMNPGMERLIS
Value Kind: remaining activity at 1 µM (%)

{"columns": ["Compound Structure", "Assay Value"],
 "data": [
  ["Cn1c(=O)n(-c2ccc(C(C)(C)C#N)cc2)c2c3cc(-c4cnc5ccccc5c4)ccc3ncc21", 85],
  ["Nc1cc(C(F)(F)F)c(-c2cc(N3CCOCC3)nc(N3CCOCC3)n2)cn1", 91],
  ["FC(F)c1nc2ccccc2n1-c1nc(N2CCOCC2)nc(N2CCOCC2)n1", 98],
  ["COc1ncc(-c2ccc3nccc(-c4ccnnc4)c3c2)cc1NS(=O)(=O)c1ccc(F)cc1F", 100]
]}

* * *

molecular target: panel of 442 kinases (Homo sapiens, UniProt Q8TD08); construct: purchased Ambit Biosciences (scanMAXX KINOMEscan); assay: biochemical; assay type: binding; conditions: ERK8; 1 µM; read-out: % of control at 1 µM
Sequence (Q8TD08 whole entry): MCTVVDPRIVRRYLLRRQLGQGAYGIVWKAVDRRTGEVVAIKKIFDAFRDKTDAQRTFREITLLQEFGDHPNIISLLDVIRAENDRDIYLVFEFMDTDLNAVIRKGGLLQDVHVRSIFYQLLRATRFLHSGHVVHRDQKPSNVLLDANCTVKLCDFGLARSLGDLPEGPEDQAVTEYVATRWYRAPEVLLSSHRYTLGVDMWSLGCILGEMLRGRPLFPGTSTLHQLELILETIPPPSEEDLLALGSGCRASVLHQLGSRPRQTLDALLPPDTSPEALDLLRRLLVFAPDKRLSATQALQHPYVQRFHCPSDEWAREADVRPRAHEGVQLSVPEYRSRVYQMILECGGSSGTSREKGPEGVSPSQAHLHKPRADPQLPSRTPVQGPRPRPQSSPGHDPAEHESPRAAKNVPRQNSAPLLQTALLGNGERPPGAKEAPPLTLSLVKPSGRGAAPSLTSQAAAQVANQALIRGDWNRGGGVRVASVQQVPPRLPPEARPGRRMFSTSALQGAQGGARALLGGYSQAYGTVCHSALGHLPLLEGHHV
Value Kind: remaining activity at 1 µM

{"columns": ["Compound Structure", "Assay Value"],
 "data": [
  ["Cn1c(=O)n(-c2ccc(C(C)(C)C#N)cc2)c2c3cc(-c4cnc5ccccc5c4)ccc3ncc21", "86%"],
  ["FC(F)c1nc2ccccc2n1-c1nc(N2CCOCC2)nc(N2CCOCC2)n1", "100%"],
  ["COc1ncc(-c2ccc3nccc(-c4ccnnc4)c3c2)cc1NS(=O)(=O)c1ccc(F)cc1F", "100%"],
  ["Nc1cc(C(F)(F)F)c(-c2cc(N3CCOCC3)nc(N3CCOCC3)n2)cn1", "100%"]
]}

* * *

Target: panel of 442 kinases (Homo sapiens, UniProt O95835)
Construct: purchased Ambit Biosciences (scanMAXX KINOMEscan)
Sequence (O95835 1-1130): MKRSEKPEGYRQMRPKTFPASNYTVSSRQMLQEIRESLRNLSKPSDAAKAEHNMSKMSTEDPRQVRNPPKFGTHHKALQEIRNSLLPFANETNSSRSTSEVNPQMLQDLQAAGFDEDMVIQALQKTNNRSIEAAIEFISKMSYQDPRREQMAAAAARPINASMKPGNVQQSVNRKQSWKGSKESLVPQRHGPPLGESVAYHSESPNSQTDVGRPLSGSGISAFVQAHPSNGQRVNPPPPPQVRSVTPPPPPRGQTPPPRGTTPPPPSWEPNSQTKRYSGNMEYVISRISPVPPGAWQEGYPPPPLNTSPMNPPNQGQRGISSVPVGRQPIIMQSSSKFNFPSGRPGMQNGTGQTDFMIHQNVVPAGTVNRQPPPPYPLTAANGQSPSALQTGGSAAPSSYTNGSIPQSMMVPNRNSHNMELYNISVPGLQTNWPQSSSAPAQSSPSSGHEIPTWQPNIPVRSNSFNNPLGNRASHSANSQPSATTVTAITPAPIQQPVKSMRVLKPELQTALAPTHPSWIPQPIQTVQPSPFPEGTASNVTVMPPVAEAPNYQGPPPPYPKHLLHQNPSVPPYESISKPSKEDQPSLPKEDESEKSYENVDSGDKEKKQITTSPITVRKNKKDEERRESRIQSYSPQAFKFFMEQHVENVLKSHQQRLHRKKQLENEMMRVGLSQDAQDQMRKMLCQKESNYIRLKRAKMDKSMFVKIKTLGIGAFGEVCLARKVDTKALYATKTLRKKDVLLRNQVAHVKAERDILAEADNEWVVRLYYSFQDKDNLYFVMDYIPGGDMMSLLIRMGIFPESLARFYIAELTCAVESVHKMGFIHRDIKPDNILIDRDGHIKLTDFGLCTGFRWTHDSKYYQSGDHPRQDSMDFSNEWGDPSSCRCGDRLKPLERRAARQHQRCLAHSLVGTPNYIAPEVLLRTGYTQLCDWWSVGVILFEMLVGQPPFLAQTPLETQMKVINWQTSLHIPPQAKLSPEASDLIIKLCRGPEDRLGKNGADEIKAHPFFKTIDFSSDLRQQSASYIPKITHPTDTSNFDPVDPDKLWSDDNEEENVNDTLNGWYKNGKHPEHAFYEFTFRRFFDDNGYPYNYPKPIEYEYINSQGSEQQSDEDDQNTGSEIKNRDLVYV
Assay: biochemical
Format: binding
Conditions: kinase LATS1; 1 µM; read-out: % of control at 1 µM
Value Kind: remaining activity at 1 µM (%)

{"columns": ["Compound Structure", "Target Of Assay", "Assay Value"],
 "data": [
  ["Nc1cc(C(F)(F)F)c(-c2cc(N3CCOCC3)nc(N3CCOCC3)n2)cn1", "panel of 442 kinases (Homo sapiens, UniProt O95835)", 71],
  ["FC(F)c1nc2ccccc2n1-c1nc(N2CCOCC2)nc(N2CCOCC2)n1", "panel of 442 kinases (Homo sapiens, UniProt O95835)", 90],
  ["Cn1c(=O)n(-c2ccc(C(C)(C)C#N)cc2)c2c3cc(-c4cnc5ccccc5c4)ccc3ncc21", "panel of 442 kinases (Homo sapiens, UniProt O95835)", 100],
  ["COc1ncc(-c2ccc3nccc(-c4ccnnc4)c3c2)cc1NS(=O)(=O)c1ccc(F)cc1F", "panel of 442 kinases (Homo sapiens, UniProt O95835)", 100]
]}

* * *

target: panel of 442 kinases (Homo sapiens); construct: purchased Ambit Biosciences (scanMAXX KINOMEscan); assay: biochemical; type: binding; conditions: kinase MRCKA; 1 µM; read-out: % of control at 1 µM

{"columns": ["Compound Structure", "Unit Name", "remaining activity at 1 µM"],
 "data": [
  ["COc1ncc(-c2ccc3nccc(-c4ccnnc4)c3c2)cc1NS(=O)(=O)c1ccc(F)cc1F", "%", 97],
  ["FC(F)c1nc2ccccc2n1-c1nc(N2CCOCC2)nc(N2CCOCC2)n1", "%", 83],
  ["Cn1c(=O)n(-c2ccc(C(C)(C)C#N)cc2)c2c3cc(-c4cnc5ccccc5c4)ccc3ncc21", "%", 83],
  ["Nc1cc(C(F)(F)F)c(-c2cc(N3CCOCC3)nc(N3CCOCC3)n2)cn1", "%", 80]
]}
